Measured Porcine Ventricle IC25, listed per entry for reference.
- Assayed System: Porcine Ventricle myofibrils (left ventricle of Yucatan minipigs) (Sus scrofa)
- Construct: Myofibrils from porcine cardiac muscle was isolated from the left ventricle of Yucatan minipigs; tissue Exemplar Genetics; host or cells: left ventricle of Yucatan minipigs
- Sequence (P79293 whole entry): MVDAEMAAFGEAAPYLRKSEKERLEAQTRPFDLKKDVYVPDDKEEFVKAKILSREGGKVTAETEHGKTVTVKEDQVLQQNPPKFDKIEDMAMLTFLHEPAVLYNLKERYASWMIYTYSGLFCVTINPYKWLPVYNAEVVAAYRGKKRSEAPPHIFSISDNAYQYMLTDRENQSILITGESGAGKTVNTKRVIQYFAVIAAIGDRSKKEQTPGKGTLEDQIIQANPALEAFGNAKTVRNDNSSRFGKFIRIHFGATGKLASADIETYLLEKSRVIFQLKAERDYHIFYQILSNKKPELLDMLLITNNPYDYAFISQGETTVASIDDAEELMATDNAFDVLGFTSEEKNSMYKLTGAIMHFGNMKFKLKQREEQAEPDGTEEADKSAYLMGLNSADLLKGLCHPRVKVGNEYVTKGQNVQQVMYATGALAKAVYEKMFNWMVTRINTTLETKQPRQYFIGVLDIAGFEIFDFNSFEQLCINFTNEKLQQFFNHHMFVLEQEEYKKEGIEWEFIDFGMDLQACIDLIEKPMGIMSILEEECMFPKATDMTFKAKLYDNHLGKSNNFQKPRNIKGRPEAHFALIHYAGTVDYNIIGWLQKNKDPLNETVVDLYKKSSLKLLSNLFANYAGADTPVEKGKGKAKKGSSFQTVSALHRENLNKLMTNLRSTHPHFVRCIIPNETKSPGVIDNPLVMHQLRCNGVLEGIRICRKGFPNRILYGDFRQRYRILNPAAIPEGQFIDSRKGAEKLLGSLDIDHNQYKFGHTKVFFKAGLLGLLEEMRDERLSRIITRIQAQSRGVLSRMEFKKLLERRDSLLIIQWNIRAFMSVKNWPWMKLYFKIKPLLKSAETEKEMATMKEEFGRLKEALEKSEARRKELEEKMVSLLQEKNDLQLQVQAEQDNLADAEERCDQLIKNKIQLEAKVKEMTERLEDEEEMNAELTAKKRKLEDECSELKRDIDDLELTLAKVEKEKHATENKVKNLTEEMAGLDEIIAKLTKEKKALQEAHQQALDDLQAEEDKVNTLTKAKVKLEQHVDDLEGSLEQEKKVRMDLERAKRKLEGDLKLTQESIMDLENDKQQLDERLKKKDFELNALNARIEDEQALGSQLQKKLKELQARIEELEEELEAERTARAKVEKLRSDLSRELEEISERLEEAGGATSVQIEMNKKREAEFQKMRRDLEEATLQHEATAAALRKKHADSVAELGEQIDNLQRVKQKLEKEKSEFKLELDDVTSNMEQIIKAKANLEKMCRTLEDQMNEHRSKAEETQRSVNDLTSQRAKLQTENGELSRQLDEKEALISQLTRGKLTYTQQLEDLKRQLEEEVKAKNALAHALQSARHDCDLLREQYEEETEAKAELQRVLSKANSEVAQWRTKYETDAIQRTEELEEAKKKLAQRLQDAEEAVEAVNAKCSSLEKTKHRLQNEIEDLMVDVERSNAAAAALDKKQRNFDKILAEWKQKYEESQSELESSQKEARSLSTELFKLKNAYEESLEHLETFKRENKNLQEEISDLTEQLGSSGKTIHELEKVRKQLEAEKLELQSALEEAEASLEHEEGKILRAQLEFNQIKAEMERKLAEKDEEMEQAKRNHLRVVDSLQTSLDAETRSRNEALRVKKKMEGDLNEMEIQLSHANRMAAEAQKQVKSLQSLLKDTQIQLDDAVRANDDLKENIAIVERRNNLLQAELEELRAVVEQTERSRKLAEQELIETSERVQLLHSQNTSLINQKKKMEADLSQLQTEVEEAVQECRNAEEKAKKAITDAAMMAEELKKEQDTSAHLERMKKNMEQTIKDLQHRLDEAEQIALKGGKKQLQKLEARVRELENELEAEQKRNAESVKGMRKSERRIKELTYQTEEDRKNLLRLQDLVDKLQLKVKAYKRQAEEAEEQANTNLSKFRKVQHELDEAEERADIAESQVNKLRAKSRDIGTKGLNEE
- Measurement Description: Myofibril ATPase assay (PK/LDH NADH-coupled), ventricle myofibrils
- Type: biochemical
- Condition Notes: Table 8
- Method: Myofibril ATPase assays are known in the art to be useful in evaluating small molecules for the treatment of HCM and other cardiac indications. Myosin ATPase activity is assessed by using a coupled reaction system, in which ADP generated by the myosin ATPase function is coupled to the disappearance of NADH through the pyruvate kinase/lactate dehydrogenase (PK-LDH) system. ATPase activity produces ADP, which is used as a substrate for PK to produce pyruvate and regenerate ATP. […]
// units = µM; emit number, no label

Take a look at these entries with their results.
| Compound | Experimental Result |
| --- | --- |
| C[C@@H](NC(=O)CN1C(=O)Nc2ccc(F)cc2C12CC2)c1cnc(C#N)cn1 [Compound B336] | 0.27 |
| C[C@H](NC(=O)[C@@H](C)N1Cc2c(ccc(F)c2F)NC1=O)c1ncc(C#N)cc1F [Compound B279] | 0.70 |
| Cc1cc(F)ccc1[C@@H](C)NC(=O)CN1Cc2cc(F)ccc2NC1=O [Compound B224] | 100 |
| Cc1cccnc1[C@@H](C)NC(=O)CN1Cc2cc(F)ccc2NC1=O [Compound B192] | 100 |
| N#Cc1cnc2c(c1)OC[C@H]2NC(=O)CN1C(=O)Nc2ccc(F)c(F)c2C12CC2 [Compound B321] | 0.97 |

Form field: reported Porcine Ventricle IC25 of C[C@H](NC(=O)CN1Cc2c(F)cc(F)cc2NC1=O)c1ccc(C#N)cc1F [Compound B43] 0.0473

Query (compound): Cc1cc(F)ccc1[C@H](C)NC(=O)CN1Cc2cc(F)ccc2NC1=O [Compound B225] ; field requested: Porcine Ventricle IC25 0.1849

Need Porcine Ventricle IC25 of C[C@H](NC(=O)CN1Cc2c(ccc(F)c2F)NC1=O)c1ccc2cnccc2n1 [Compound B275] , thanks. 100.00

What does the data say about its Porcine Ventricle IC25? Entry: O=C(CN1Cc2c(ccc(F)c2F)NC1=O)N[C@H]1COc2cc(F)cc(F)c21 [Compound B148] 5.833

Recorded Porcine Ventricle IC25 of C[C@H](NC(=O)[C@H](C)N1Cc2c(F)cccc2NC1=O)c1ccc(F)cc1F [Compound B222] , please. 0.4365
